System: rat primary articular chondrocytes
Test: Toxicity analysis (MTT) in rat primary chondrocytes
Conditions: 48 h
Value Type: First toxic concentration at 48 h in rat primary chondrocytes (µM)
Supply the numeric figure in µM, leaving out any unit text.

Given Smiles | Target Or System | Result
Cc1ccc(NC(=O)c2cccc(C(F)(F)F)c2)cc1CCc1cc(Nc2cnccn2)[nH]n1 | rat primary articular chondrocytes | 3

Recall and state the measured First toxic concentration at 48 h in rat primary chondrocytes for Cc1ccc(NC(=O)c2cccc(C(F)(F)F)c2)cc1CCc1cc(NC(=O)c2ccc(F)cc2)[nH]n1 .
10

Supply reported First toxic concentration at 48 h in rat primary chondrocytes belonging to this compound: Cc1ncc(Nc2cc(CCc3cc(NC(=O)c4cccc(C(F)(F)F)c4)ccc3F)n[nH]2)cn1
10

* * *

The reader will find reported IC50 values listed item by item below.
System: IL-1β
Experiment: Gene expression in rat articular chondrocytes under IL-1β stimulation, IL-1β
Assay type: cell-based
Details: Rattus norvegicus, Chondrocyte; 6 h incubation
Numbers only; they are read as nM.

Known IC50 results, listed for orientation:
Compound | IC50, nM
Cc1ccc(NC(=O)c2cccc(C(F)(F)F)c2)cc1CCc1cc(Nc2cnccn2)[nH]n1 [Compound 3] | 2
CCNC1(c2ccc(C(=O)Nc3ccc(C)c(CCc4cc(Nc5cnccn5)[nH]n4)c3)cc2)CC1 [Compound 4] | 1700
Cc1ccc(NC(=O)c2cccc(S(C)(=O)=O)c2)cc1CCc1cc(Nc2cnccn2)[nH]n1 [Compound 1] | 2100

Attention now shifts to the item below.
Give IC50 for the following compound: Cc1ccc(NC(=O)c2cccc(S(C)(=O)=O)c2)cc1CCc1cnc(Nc2cnccn2)s1 [Compound 48]
600

* * *

Target: Lyn-A (Homo sapiens (Human), UniProt P07948)
Sequence (P07948 whole entry): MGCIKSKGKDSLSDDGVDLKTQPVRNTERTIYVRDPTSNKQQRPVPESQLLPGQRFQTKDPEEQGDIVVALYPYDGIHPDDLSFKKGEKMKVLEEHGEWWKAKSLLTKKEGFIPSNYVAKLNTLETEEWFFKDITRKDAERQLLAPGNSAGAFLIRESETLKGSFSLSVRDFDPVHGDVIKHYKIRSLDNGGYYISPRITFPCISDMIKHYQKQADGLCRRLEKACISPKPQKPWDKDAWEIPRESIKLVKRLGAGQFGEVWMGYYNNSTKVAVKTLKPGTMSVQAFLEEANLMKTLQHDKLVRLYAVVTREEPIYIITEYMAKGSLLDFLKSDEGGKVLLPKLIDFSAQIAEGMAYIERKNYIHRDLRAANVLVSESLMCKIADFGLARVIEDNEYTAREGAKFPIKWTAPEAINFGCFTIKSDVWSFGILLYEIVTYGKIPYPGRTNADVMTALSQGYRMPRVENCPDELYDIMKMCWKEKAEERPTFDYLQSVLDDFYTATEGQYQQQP
Value Type: IC50

Quick one: give measured IC50 for Cc1ccc(NC(=O)c2cccc(C(F)(F)F)c2)cc1CCc1cc(Nc2cnccn2)[nH]n1
59 nM

* * *

Target: VEGFR2 (Homo sapiens (Human))
Sequence (P35968 20-1356): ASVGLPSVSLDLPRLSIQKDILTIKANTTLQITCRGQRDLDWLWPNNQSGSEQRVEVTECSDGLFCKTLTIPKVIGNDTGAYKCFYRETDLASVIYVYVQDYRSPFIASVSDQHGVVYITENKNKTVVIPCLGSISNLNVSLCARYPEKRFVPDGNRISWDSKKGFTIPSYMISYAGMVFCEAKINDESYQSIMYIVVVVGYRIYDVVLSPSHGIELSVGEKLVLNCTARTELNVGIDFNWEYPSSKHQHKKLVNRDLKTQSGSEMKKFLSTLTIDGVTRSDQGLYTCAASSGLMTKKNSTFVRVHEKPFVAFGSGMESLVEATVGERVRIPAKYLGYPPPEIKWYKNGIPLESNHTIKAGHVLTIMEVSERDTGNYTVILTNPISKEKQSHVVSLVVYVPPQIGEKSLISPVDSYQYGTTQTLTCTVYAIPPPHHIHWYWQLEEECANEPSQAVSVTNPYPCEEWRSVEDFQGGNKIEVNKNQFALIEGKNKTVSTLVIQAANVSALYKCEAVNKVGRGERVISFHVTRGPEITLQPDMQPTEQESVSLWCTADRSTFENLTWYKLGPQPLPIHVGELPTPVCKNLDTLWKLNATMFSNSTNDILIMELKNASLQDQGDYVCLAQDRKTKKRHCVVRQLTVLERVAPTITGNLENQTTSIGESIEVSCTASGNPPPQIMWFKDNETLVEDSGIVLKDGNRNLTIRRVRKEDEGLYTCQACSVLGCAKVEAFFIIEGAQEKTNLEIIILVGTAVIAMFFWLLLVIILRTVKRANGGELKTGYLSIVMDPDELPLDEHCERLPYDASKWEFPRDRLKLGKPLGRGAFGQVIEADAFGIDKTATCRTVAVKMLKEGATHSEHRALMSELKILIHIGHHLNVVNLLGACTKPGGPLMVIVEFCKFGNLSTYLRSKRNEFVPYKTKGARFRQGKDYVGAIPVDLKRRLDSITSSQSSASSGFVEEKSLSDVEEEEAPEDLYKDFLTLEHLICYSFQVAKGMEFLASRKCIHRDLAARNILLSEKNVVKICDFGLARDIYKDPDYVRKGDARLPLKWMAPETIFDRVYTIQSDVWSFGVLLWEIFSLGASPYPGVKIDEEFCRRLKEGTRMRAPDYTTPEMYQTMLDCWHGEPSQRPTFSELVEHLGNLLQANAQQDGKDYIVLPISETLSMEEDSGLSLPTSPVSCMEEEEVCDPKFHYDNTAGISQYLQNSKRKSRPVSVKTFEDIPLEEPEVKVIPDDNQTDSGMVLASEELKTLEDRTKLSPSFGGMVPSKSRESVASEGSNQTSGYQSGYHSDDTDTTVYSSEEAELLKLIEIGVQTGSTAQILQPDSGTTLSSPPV
Assay: In vitro VEGFR2 kinase activity assay (Eurofins Cerep)
Assay type: biochemical
Settings: read-out: VEGFR2 KINASE INHIBITION IC50
Response field label takes MET when IC50 is strictly below 20 nM and NOT MET in all other cases.

Field: example entries. Status: answers known.
Given Smiles | Group Label
Cc1ccc(NC(=O)c2cccc(C(F)(F)F)c2)cc1CCc1cc(NC(=O)c2ccccn2)[nH]n1 | MET
Cc1nc(CN2C[C@@H](C)O[C@@H](C)C2)cc(Nc2cc(CCc3cc(NC(=O)c4cccc(C(F)(F)F)c4)ccc3F)[nH]n2)n1 | MET

Input Cc1nc(C#N)cc(Nc2cc(CCc3cc(NC(=O)c4cccc(S(=O)(=O)N(C)C)c4)ccc3C)n[nH]2)n1 ; condition: IC50 strictly below 20 nM. Does it hold?
NOT MET

Strictly below 20 nM in IC50? O=C(Nc1ccc(F)c(CCc2cc(Nc3cc4c(cn3)CN(CCO)C4)[nH]n2)c1)c1cccc(C(F)(F)F)c1
MET

Is the reported IC50 for Cc1nc(C#N)cc(Nc2cc(CCc3cc(NC(=O)c4ccc(CN(C)C)c(C(F)(F)F)c4)ccc3F)n[nH]2)n1 strictly below 20 nM?
MET

Answer whether the molecule Cc1nc(Nc2cc(CCc3cc(NC(=O)c4cccc(C(F)(F)F)c4)ccc3F)n[nH]2)cc(N2CC[C@H](N(C)C)C2)n1 has IC50 strictly less than 20 nM
MET

Ref: patent US12509446B2
